B1: GMCL1 (parent)
chain: FCYCAGSHKRKRSSGSFCYCHPDS

Variants of: B1
ASSAY EXPLANATION: protein stability index of a GFP-peptide fusion (GPS, HEK-293T) (PSI 1-6); higher = more stable;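 also: lentivirally expressed fusions sorted by FACS into six bins by GFP to DsRed ratio, PSI derived from sequencing read proportions per bin multiplied by bin number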
TEST CONDITIONS: c terminus: a fixed tail appended
If the reported protein stability index equals or exceeds 2, assign Y. If not, assign N.

Please indicate if the recorded protein stability index for R10Y meets or exceeds 2. N

Is the recorded value of protein stability index equal to or greater than 2 for this variant? G6W Y

Textbook exercise: given the entry H21F , state whether its protein stability index is greater than or equal to 2. Y

Test whether the variant A5W records protein stability index of 2 or higher. Y

Given F1H , state whether its protein stability index is at least 2. Y

Reported protein stability index at or above 2? H21N Y

Tell me whether protein stability index is at least 2 here: H21R Y

Is reported protein stability index greater than or equal to 2 here: F17L Y

Exam item: decide whether the reported protein stability index for Y19H is at least 2. Y

# bool: protein stability index of D23T >= 2 Y

Could you tell me if the measured protein stability index of F17R reaches 2 or more? Y

Determine whether measured protein stability index meets or exceeds 2 for K9F Y

Does the reported protein stability index for R10F fall at or above the 2 mark? N

Threshold query (protein stability index >= 2) on A5L N

Is it the case that C2I has protein stability index reaching or exceeding 2? N

Can H8I be said to have protein stability index at or above 2? N

Is the recorded value of protein stability index equal to or greater than 2 for this variant? Y19N Y

Dear colleague, could you confirm whether P22D has protein stability index at or above 2? Y

Would you say R10G shows protein stability index at minimum 2? Y

Record S13Q ; criterion: protein stability index no lower than 2. Met? N

Reported protein stability index reaches at least 2 for Y19M ? Y

API: above_or_equal(metric=protein stability index, cutoff=2) for item S16Q N

Does the reported protein stability index for H21M fall at or above the 2 mark? Y

Dear colleague, could you confirm whether A5F has protein stability index at or above 2? Y

Quick check: does H8R have protein stability index greater than or equal to 2? N

Is reported protein stability index greater than or equal to 2 here: K11D Y

Does the reported protein stability index for C18L fall at or above the 2 mark? Y

Determine whether this variant has protein stability index no lower than 2: K9R N

Does the reported protein stability index for S24F fall at or above the 2 mark? N

For this variant, is measured protein stability index 2 or higher? H21L Y

Item R12T with protein stability index of 2 or above? Y

Determine whether this variant has protein stability index no lower than 2: G6N Y

Threshold query (protein stability index >= 2) on G15W Y

Is the recorded value of protein stability index equal to or greater than 2 for this variant? S14E N

These entries and their values trace back to the supplement of paper PMC10567573.
